- targetOrSystem: T1, hDcn1^P (potentiating neddylation / PONY domain of human Dcn1, DCUN1D1) (Homo sapiens, UniProt Q96GG9 62-259)
- T1 construct: also called DCUN1D1^P; SCCRO PONY domain
- T1 sequence (Q96GG9 62-259): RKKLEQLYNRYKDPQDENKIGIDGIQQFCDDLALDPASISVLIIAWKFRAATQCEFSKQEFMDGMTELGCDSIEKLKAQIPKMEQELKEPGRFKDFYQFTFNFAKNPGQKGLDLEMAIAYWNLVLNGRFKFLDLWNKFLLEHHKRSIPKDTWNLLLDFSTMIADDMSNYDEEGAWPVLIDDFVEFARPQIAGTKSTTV
- assayInfo: ITC, peptide titrated into Dcn PONY domain
Non-standard residues stand in square brackets, D forms with d. Nle = CCCC[C@H](N)C(=O)O
readoutKind: Kd
Write the numeric value and follow it with the unit.

Sample Ac-[Nle]LKLRQLQKKKQ-NH2 (SMILES CCCC[C@H](NC(C)=O)C(=O)N[C@@H](CC(C)C)C(=O)N[C@@H](CCCCN)C(=O)N[C@@H](CC(C)C)C(=O)N[C@@H](CCCNC(=N)N)C(=O)N[C@@H](CCC(N)=O)C(=O)N[C@@H](CC(C)C)C(=O)N[C@@H](CCC(N)=O)C(=O)N[C@@H](CCCCN)C(=O)N[C@@H](CCCCN)C(=O)N[C@@H](CCCCN)C(=O)N[C@@H](CCC(N)=O)C(N)=O) [yUbc12^Ac1-12 (NorLeu)] — what was its Kd?
628 nM

Attribution: patent US20140179593A1
